# Test system: K. pneumoniae K-1966
# test method notes: MIC by agar plate dilution method, K. pneumoniae K-1966
# Format: cell-based
# conditions: Klebsiella pneumoniae, K1966; Test 1; K. pneumoniae K-1966; inoculum 10^6; 37° C., 18 hours; read-out: minimum inhibitory concentration (MIC)
endpoint name: MIC (µg/mL)

compound | endpoint unit | numeric value
CC1Sc2c(C(=O)O)c(=O)c3cc(F)c(N4CCN(Cc5ccc(N)cc5)CC4)cc3n21 (centres unmarked) | µg/mL | 0.2
CC1Sc2c(C(=O)O)c(=O)c3cc(F)c(N4CCN(C)CC4)c(N)c3n21 (centres unmarked) | µg/mL | 0.1
CCn1cc(C(=O)O)c(=O)c2cc(F)c(N3CCNCC3)nc21 [Enoxacin, enoxacin, reference compound] | µg/mL | 0.2
CC1Sc2c(C(=O)O)c(=O)c3cc(Cl)c(N4CCNCC4)cc3n21 (centres unmarked) | µg/mL | 0.025
CC1Sc2c(C(=O)O)c(=O)c3cc(F)c(N4CCSCC4)cc3n21 (centres unmarked) | µg/mL | 0.1

###

# Tested on: E. coli KC-14
# test method notes: MIC by agar plate dilution method, E. coli KC-14
# Type: cell-based
# conditions: Escherichia coli, KC14; Test 1; E. coli KC-14; inoculum 10^6; 37° C., 18 hours; read-out: minimum inhibitory concentration (MIC)

compound | endpoint unit | MIC
CC1Sc2c(C(=O)O)c(=O)c3cc(F)c(N4CCSCC4)cc3n21 (stereo not drawn) | µg/mL | 0.05
CC1Sc2c(C(=O)O)c(=O)c3cc(F)c(N4CCN(C)CC4)c(N)c3n21 (stereo not drawn) | µg/mL | 0.05
CCn1cc(C(=O)O)c(=O)c2cc(F)c(N3CCNCC3)nc21 [Enoxacin, enoxacin, reference compound] | µg/mL | 0.1
